# Test system: U2OS
# assay.overview: Incucyte cell viability with U2OS; further: unitless GR value; below 1 slowed growth and below 0 cell loss
# Assay type: toxicity, cell-based
# run.conditions: human, 24 h, 10 µM, compound concentration 10 uM, replicate number 1
measure: Growth Rate
Returns: the value as a bare number; no unit string appended.

Worked set:
{"structure.smiles.string": "O=C(Nc1ccccc1C(=O)O)c1cc(S(=O)(=O)c2ccccc2)ccc1Cl", "measured.value": 0.79}
{"structure.smiles.string": "O=C(NCCS(=O)(=O)c1ccc(C(F)(F)F)cn1)c1ccc(Cl)cc1", "measured.value": 0.93}

# get_value(readout='Growth Rate', item= `C=C1/C(=C\C=C2/CCC[C@]3(C)[C@@H]([C@H](C)CCCC(C)(C)O)CC[C@@H]23)C[C@@H](O)C[C@@H]1O` )
0.91

Consider next the compound `COc1cc(C(=O)NCCOCCOCCOCC(=O)N[C@H](C(=O)N2C[C@H](O)C[C@H]2C(=O)NCc2ccc(-c3scnc3C)cc2)C(C)(C)C)ccc1Nc1ncc(C(F)(F)F)c(Oc2cccc3c2C(=O)CC3)n1` in the same way.
0.61

Consider next the compound `CC1(C)Oc2ncnc(N)c2N=C1c1ccc([C@H]2CC[C@H](CC(=O)O)CC2)cc1` in the same way.
0.96

Consider next the compound `O=C(Nc1ccccc1Cl)c1cnc2ccc(C3CCNCC3)cn12.O=C(O)C(=O)O` in the same way.
0.64

Consider next the compound `Clc1ccccc1C(c1ccccc1)(c1ccccc1)n1cccn1` in the same way.
0.91

Consider next the compound `CCN(CC)C/C=C/C(=O)Nc1cc2c(Nc3ccc(F)c(Cl)c3)ncnc2cc1OCC1CC1` in the same way.
-0.24

###

# System: HEK-293T
# assay.overview: Incucyte cell viability with HEK293T; further: unitless GR value; below 1 slowed growth and below 0 cell loss
# Assay type: toxicity, cell-based
# run.conditions: human, 6 h, 10 µM, compound concentration 10 uM, replicate number 2
Note that class boundaries on Growth Rate are bottom end = under -0.5, midrange = from -0.5 up to 0.5, top end = 0.5 and over

Sample answers from the record:
{"compound": "Cc1cc(O)c(-c2ccc([C@@H](C)CN(C)C)cc2)c2c1[nH]c(=O)c1sccc12", "target.or.system": "HEK-293T", "discrete.label": "bottom end"}
{"compound": "CC(C)(C)S(=O)(=O)c1ccc2nccc(Nc3n[nH]c4ccc(F)cc34)c2c1", "target.or.system": "HEK-293T", "discrete.label": "midrange"}
{"compound": "C[C@]12CC[C@@H]3c4ccc(C(N)=O)cc4CC[C@H]3[C@@H]1CC=C2c1cncc(F)c1", "target.or.system": "HEK-293T", "discrete.label": "bottom end"}

Class for `CNC(=O)c1c[nH]c2ccc(Nc3nccc(-c4ccccn4)n3)cc12` ?
midrange

Consider next the compound `COc1cc(-c2cc([C@H](O)C3CC3)n3ncnc(N)c23)ccc1CO` in the same way.
bottom end

Consider next the compound `COc1cc2ncnc(Nc3ccc(F)c(Cl)c3)c2cc1OCCN(C)C[C@H](C)O` in the same way.
top end

Consider next the compound `CCCCNc1ncc2c(-c3ccc(CN4CCN(C)CC4)cc3)cn([C@H]3CC[C@H](O)CC3)c2n1` in the same way.
midrange

Consider next the compound Cc1c(C(=O)NCCCN(C)C)sc2ncnc(Nc3ccc(F)cc3OC(C)CF)c12 (stereo not drawn) in the same way.
midrange

Consider next the compound `CN1CCN(c2ccc(/C=C(\C#N)c3ccccc3Br)cc2)CC1.Cl.Cl` in the same way.
top end

Consider next the compound `COc1ncc(-c2cc(-c3ncc(CN4C[C@@H](C)O[C@@H](C)C4)o3)c3cn[nH]c3c2)cc1NS(C)(=O)=O` in the same way.
bottom end

Consider next the compound CCN(CC)C(=O)C1CN2CCc3cc(OC)c(OC)cc3C2CC1OC(C)=O (stereo not drawn) [BENZQUINAMIDE] in the same way.
top end

Consider next the compound CCC(C(=O)Nc1ccc(-c2cc3ccccc3s2)c(C(N)=O)c1)c1nccs1 (stereo not drawn) in the same way.
midrange

Consider next the compound `COc1cc2c(cc1CC=C(C)C)C(=O)C[C@@H](c1ccc(O)cc1)O2` in the same way.
top end

Consider next the compound `CN[C@@H](C)C(=O)N[C@H](C(=O)N1CCC[C@H]1c1nc(C(=O)c2ccc(F)cc2)cs1)C1CCCCC1` in the same way.
top end

Consider next the compound `Cc1cn(CCN2CCN(c3ccccc3-c3cc(C#N)cc(C(=O)NCCCN4CCCC4)c3)CC2)c2ccccc12` in the same way.
bottom end

Consider next the compound `C[C@H](c1ccnc(Nc2nc3ccc(-c4cc(N(C)C)ncn4)cc3[nH]2)c1)N1CCN(C(=O)CC(F)(F)F)CC1` in the same way.
top end

Consider next the compound `Cc1cc(C)nc(Nc2ncc(C(=O)NCCc3c(C)[nH]c4ccccc34)cn2)c1.Cl` in the same way.
midrange
